Target: T1, recombinant human IL-2 receptor beta containing a His-tag and Avi-Tag (R&D Systems #AVI10459) (human, UniProt P14784 27-239)
T1 construct: bought protein, held on the Octet SAX2 sensor; also called CD122; IL-2Rβ
T1 sequence (looked up): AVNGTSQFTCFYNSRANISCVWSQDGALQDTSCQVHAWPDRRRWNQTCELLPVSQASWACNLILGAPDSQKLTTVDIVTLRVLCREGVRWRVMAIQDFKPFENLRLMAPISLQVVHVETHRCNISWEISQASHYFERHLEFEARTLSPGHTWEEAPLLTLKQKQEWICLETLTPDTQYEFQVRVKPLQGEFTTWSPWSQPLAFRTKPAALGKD
Assay: BLI (Octet), receptor on SAX2 sensor, IL-2 as analyte
*1 amine or outer side, *2 acyl side, *3 side chain or, on linkers, in order; H or OH if unused. Bridges are numbered along the chain shown (N, C = ends). Primed or numbered codes have the meaning given here. [ ]: non-standard residue; d: D form. cleavable peptide RGRRVANLVG = CC(C)C[C@H](NC(=O)[C@H](CC(N)=O)NC(=O)[C@H](C)NC(=O)[C@@H](NC(=O)[C@H](CCCNC(=N)N)NC(=O)[C@H](CCCNC(=N)N)NC(=O)CNC(=O)[C@H](CCCNC(=N)N)N[*:1])C(C)C)C(=O)N[C@H](C(=O)NCC(=O)[*:2])C(C)C; Ygp″ = O-(PEG8-amino)-tyrosine (O-(8x polyethylene glycol-amino)-tyrosine); Yn3″ = O-(PEG9-azido)-tyrosine (O-(9x polyethylene glycol-azido)-tyrosine); Ygp = O-(8x polyethylene glycol-amino)-tyrosine; Yn3 = O-(9x polyethylene glycol-azido)-tyrosine; Ygp(3) = O-(PEG8-amino)-tyrosine; Yn3(3) = O-(PEG9-azido)-tyrosine; hSer = N[C@@H](CCO)C(=O)O; Nle = CCCC[C@H](N)C(=O)O
koff reference
Record the value in s⁻¹, omitting the unit from your answer.

The examples below pair each entry with its known result.
**Query** Returns the measured koff for the input binder. Input: CMP-168 (ligand, disulfide 58-105 (inferred); bridge 9-23; not fully specified (residue 23, bridges)) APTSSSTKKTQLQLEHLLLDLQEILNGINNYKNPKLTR[Nle]L[hSer][Yn3]KF[Ygp][Nle]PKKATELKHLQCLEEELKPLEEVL[hSer]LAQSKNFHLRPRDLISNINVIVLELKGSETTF[hSer]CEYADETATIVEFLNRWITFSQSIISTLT
**Result** 0.0721

**Query** Fill in the blank: the reported koff of CMP-328 (ligand, disulfide 58-105; linker 9-23 via cleavable peptide RGRRVANLVG; also: macrocycle: cleavable peptide bridging Lys9 and Glu23 side chains (structure drawing only)) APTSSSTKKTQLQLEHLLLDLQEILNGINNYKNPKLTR[Nle]L[hSer][Yn3(3)]KF[Ygp(3)][Nle]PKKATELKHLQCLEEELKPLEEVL[hSer]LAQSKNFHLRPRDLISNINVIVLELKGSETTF[hSer]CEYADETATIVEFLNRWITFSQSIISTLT is ____.
**Result** 0.00154

**Query** Can you look up the measured koff of CMP-136 (ligand, disulfide 58-105; bridge N-29; not fully specified (residue 29, bridges); also: cleavable peptide sequence not given here) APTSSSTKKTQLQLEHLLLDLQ[Nle]ILNGIENYKNPKLTR[Nle]L[hSer][Yn3″]KF[Ygp″][Nle]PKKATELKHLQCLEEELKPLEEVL[hSer]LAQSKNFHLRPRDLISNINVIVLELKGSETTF[hSer]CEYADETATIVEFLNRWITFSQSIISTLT for me?
**Result** 0.00767

---
**Query** Form field: reported koff of CMP-319 (ligand, lactam N-33; not fully specified (bridges)) RGRRVANLVGAPTSSSTKKTQLQLEHLLLDLQEILNGINNYKNPKLTR[Nle]L[hSer][Yn3(3)]KF[Ygp(3)][Nle]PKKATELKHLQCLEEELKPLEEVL[hSer]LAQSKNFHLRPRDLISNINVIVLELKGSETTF[hSer]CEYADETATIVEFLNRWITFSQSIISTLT
**Result** 0.0122

The measurements presented in this section are drawn from patent US20240417436A1.
